# target_entity: hERG (Homo sapiens)
# Sequence (Q12809 whole entry): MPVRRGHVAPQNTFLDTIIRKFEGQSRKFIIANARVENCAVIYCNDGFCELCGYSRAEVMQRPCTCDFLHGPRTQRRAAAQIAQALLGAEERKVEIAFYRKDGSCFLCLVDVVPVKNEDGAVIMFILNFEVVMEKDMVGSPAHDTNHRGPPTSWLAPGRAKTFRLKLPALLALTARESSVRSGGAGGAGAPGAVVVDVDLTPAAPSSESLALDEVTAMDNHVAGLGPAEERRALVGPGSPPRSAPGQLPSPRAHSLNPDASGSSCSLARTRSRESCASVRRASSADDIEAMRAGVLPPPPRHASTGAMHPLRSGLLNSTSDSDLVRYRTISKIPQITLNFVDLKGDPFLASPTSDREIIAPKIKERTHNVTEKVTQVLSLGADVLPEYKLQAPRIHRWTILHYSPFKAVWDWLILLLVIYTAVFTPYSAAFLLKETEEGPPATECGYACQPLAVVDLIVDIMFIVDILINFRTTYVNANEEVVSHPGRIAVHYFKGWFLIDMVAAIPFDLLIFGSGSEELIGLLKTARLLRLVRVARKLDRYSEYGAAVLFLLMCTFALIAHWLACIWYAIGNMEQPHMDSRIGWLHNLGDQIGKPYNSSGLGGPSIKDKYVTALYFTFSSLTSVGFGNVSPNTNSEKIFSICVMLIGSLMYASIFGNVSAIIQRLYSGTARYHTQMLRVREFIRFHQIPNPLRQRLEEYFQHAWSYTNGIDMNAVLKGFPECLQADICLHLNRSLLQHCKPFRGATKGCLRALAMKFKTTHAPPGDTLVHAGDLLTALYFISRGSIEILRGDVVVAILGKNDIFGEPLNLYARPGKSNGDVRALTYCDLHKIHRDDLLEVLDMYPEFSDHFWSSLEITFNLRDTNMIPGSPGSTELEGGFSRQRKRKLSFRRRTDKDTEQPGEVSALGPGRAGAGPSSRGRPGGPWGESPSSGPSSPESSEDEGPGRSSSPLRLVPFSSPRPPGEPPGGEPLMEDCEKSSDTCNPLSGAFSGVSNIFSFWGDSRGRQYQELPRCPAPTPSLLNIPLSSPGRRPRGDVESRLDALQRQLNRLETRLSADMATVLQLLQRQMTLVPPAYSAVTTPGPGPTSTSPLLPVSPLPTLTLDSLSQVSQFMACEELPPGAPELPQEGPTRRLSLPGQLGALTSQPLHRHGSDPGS
pIC50: −log10 of the molar value.
measurement_label: pIC50

What value of pIC50 has been recorded for this entry: Cc1cc(F)cc(C)c1C(=O)c1sc2cc(O)ccc2c1Oc1ccc(/C=C/C(=O)O)cc1
< 5.00

----------
# System: MCF7:5C
# assay_text: Cell viability of MCF7:5C (tamoxifen resistant), fluorescent DNA quantitation
# Type: cell-based
# measurement_context: 144 h, read-out: MCF-7:5C IC50
measurement_label: IC50

State its IC50 on MCF7:5C: Cc1cc(F)ccc1C(=O)c1sc2cc(O)ccc2c1Oc1ccc(/C=C/C(=O)O)cc1F
< 0.01 µM

For Cc1cc(F)ccc1C(=O)c1sc2cc(O)ccc2c1Oc1c(F)cc(/C=C/C(=O)O)cc1F then?
> 0.01 µM

Cc1cc(F)ccc1C1(c2sc3cc(O)ccc3c2Oc2ccc(/C=C/C(=O)O)cc2)CC1 ?
< 0.1 µM

Another compound: Cc1ccc(C(=O)c2sc3cc(O)ccc3c2Oc2ccc(NC(=O)C(=O)O)cc2)c(C)c1
> 0.01 µM

Here is the next compound: Cc1cc(F)ccc1C(F)(F)c1sc2cc(O)ccc2c1Oc1ccc(/C=C/C(=O)O)cc1
< 0.1 µM
